B1: glmS ribozyme (parent)
chain: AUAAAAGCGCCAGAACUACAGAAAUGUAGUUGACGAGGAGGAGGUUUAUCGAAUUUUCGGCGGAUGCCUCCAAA

# Variants of: B1
# TEST_DETAILS: self-cleavage kobs at 40 uM GlcN6P; higher = faster cleavage; RNA array
# PROTOCOL_CONDITIONS: with glucosamine-6-phosphate
Variants at the floor of the assay were thinned out.
METRIC_NAME: self-cleavage kobs at 40 uM GlcN6P

These recorded examples may help you get a feel for the data.
* A15G G62U | < 1e-05 s⁻¹
* C8G U45C | < 1e-05 s⁻¹
* G7C G13C G63U C70G | < 1e-05 s⁻¹
* A53U C70U | 0.000741 s⁻¹
* A48U C58U | < 1e-05 s⁻¹

GET /values?readout=self-cleavage kobs at 40 uM GlcN6P&item= G37A A53U C71U
7.9e-05 s⁻¹

GET /values?readout=self-cleavage kobs at 40 uM GlcN6P&item= C8G U31A U56A C70A
< 1e-05 s⁻¹

GET /values?readout=self-cleavage kobs at 40 uM GlcN6P&item= A6C G63C
< 1e-05 s⁻¹

GET /values?readout=self-cleavage kobs at 40 uM GlcN6P&item= U45C G60U
< 1e-05 s⁻¹

GET /values?readout=self-cleavage kobs at 40 uM GlcN6P&item= G13A G63U
< 1e-05 s⁻¹

GET /values?readout=self-cleavage kobs at 40 uM GlcN6P&item= A12U C34U G41U G66C
< 1e-05 s⁻¹

GET /values?readout=self-cleavage kobs at 40 uM GlcN6P&item= A12U U55G
0.00298 s⁻¹

GET /values?readout=self-cleavage kobs at 40 uM GlcN6P&item= A64G U65A C68G
< 1e-05 s⁻¹

GET /values?readout=self-cleavage kobs at 40 uM GlcN6P&item= A12U G40U C61A
< 1e-05 s⁻¹

GET /values?readout=self-cleavage kobs at 40 uM GlcN6P&item= U46G G63C
< 1e-05 s⁻¹

GET /values?readout=self-cleavage kobs at 40 uM GlcN6P&item= G13C U56C
< 1e-05 s⁻¹

GET /values?readout=self-cleavage kobs at 40 uM GlcN6P&item= G38C U56A
< 1e-05 s⁻¹

GET /values?readout=self-cleavage kobs at 40 uM GlcN6P&item= "U45C"
7.81e-05 s⁻¹

GET /values?readout=self-cleavage kobs at 40 uM GlcN6P&item= G41U A53G
0.000167 s⁻¹

GET /values?readout=self-cleavage kobs at 40 uM GlcN6P&item= A53U G59A
< 1e-05 s⁻¹

GET /values?readout=self-cleavage kobs at 40 uM GlcN6P&item= A6U G44A C70U
< 1e-05 s⁻¹

GET /values?readout=self-cleavage kobs at 40 uM GlcN6P&item= A15C C70U
0.000192 s⁻¹
